TEST_SYSTEM: Substance-P receptor (Homo sapiens)
Sequence (P25103 whole entry): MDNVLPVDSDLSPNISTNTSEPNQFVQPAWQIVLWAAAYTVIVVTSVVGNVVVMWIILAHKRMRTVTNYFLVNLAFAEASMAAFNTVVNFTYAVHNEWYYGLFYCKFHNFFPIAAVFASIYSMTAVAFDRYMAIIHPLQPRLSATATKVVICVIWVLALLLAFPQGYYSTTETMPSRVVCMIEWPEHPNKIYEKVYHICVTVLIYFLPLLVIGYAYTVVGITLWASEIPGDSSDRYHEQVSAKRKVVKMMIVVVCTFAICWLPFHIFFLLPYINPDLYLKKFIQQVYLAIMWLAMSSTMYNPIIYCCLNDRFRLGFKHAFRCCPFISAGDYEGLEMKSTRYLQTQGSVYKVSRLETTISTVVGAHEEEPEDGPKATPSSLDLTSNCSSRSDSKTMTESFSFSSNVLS
ASSAY_PROTOCOL: Binding affinity against recombinant human tachykinin receptor 1 in CHO cells using [3H]-Sar SP as radioligand
pKi: −log10 of the molar value.
Decision: pKi >= 9 yields T, all other cases yield F.

{"columns": ["SMILES_TEXT", "CAT"],
 "data": [
  ["CO/N=C(\\CN(C)C(=O)c1cc(Cl)cc(Cl)c1)[C@H](CCN1CCC(N2CCCN(c3ccccn3)C2=O)CC1)c1ccc(Cl)c(Cl)c1", "F"],
  ["CCN(C/C(=N\\OC)[C@H](CCN1CCC(n2c(=O)n(CCOC)c3ccccc32)CC1)c1ccc(Cl)c(Cl)c1)C(=O)c1cc(Cl)cc(Cl)c1", "F"],
  ["CO/N=C(\\CN(C(=O)c1cc(Cl)cc(Cl)c1)C1CC1)[C@H](CCN1CCC(n2c(O)nc3ccccc32)CC1)c1ccc(Cl)c(Cl)c1", "F"],
  ["CCN(C/C(=N\\OC)[C@H](CCN1CCC(n2c(=O)[nH]c3ccccc32)CC1)c1ccc(Cl)c(Cl)c1)C(=O)c1cc(Cl)cc(Cl)c1", "F"],
  ["CO/N=C(\\CN(C)C(=O)c1cc(Cl)cc(Cl)c1)[C@H](CCN1CCC(N2CCCN(C)C2=O)CC1)c1ccc(Cl)c(Cl)c1", "T"]
]}

Next:
Prompt line: Is pKi for `CO/N=C(\CN(C)C(=O)c1cc(Cl)cc(Cl)c1)[C@H](CCN1CCC(N2CCCN(Cc3ccsc3)C2=O)CC1)c1ccc(Cl)c(Cl)c1` at or above 9?
Response line: F

---

TEST_SYSTEM: Substance-P receptor (Homo sapiens)
ASSAY_PROTOCOL: Binding affinity against recombinant human tachykinin receptor 1 in CHO cells using [3H]-Sar SP as radioligand
Listing of entries alongside the reported pKi.
Conceptually, pKi converts a concentration in mol/L into minus its log10.

{"columns": ["SMILES_TEXT", "PROPERTY_MEASURED", "RESULT_NUMBER"],
 "data": [
  ["CO/N=C(\\CN(C)C(=O)c1cc(Cl)cc(Cl)c1)[C@H](CCN1CCC(N2CCCN(C(C)(C)C(N)=O)C2=O)CC1)c1ccc(Cl)c(Cl)c1", "pKi", 9.10],
  ["CO/N=C(\\CN(C)C(=O)c1cc(Cl)cc(Cl)c1)[C@H](CCN1CCC(N2CCCN(CC(=N)NO)C2=O)CC1)c1ccc(Cl)c(Cl)c1", "pKi", 9.22]
]}

Notebook: `CO/N=C(\CN(C)C(=O)c1cc(Cl)cc(Cl)c1)[C@H](CCN1CCC(N2CCCN(Cc3ccoc3)C2=O)CC1)c1ccc(Cl)c(Cl)c1` , pKi read as 8.96
